# Lookup of reported pKd keyed by entry
- Target desc: equine FcRn (large alpha subunit p51) / equine beta-2-microglobulin complex, biotinylated (equine) (UniProt P30441)
- Method: SPR (Biacore), pH 6
pKd: −log10 of the molar value.
Quantity name: pKd

Binder | Quantity name | Assay result
equine IgG1 T286A (antibody, part only; not given: Variable domains, not shown: another chain or arm of the molecule) constant: ASTTAPKVFALAPGCGTTSDSTVALGCLVSGYFPEPVKVSWNSGSLTSGVHTFPSVLQSSGFYSLSSMVTVPASTWTSETYICNVVHAASNFKVDKRIEPIPDNHQKVCDMSKCPKCPAPELLGGPSVFIFPPNPKDTLMITRTPEVTCVVVDVSQENPDVKFNWYMDGVEVRAATTRPKEEQFNSTYRVVSVLRIQHQDWLSGKEFKCKVNNQALPQPIERTITKTKGRSQEPQVYVLAPHPDELSKSKVSVTCLVKDFYPPEINIEWQSNGQPELETKYSTTQAQQDSDGSYFLYSKLSVDRNRWQQGTTFTCGVMHEALHNHYTQKNVSKNPGK | pKd | 7.73
equine IgG4 N434M (antibody, part only; not given: variable domains, not shown: another chain or arm of the molecule) constant: ASTTAPKVFPLASHSAATSGSTVALGCLVSSYFPEPVTVSWNSGALTSGVHTFPSVLQSSGLYSLSSMVTVPASSLKSQTYICNVAHPASSTKVDKKIVIKECNGGCPAECLQVGPSVFIFPPKPKDVLMISRTPTVTCVVVDVGHDFPDVQFNWYVDGVETHTATTEPKQEQFNSTYRVVSVLPIQHKDWLSGKEFKCKVNNKALPAPVERTISKPTGQPREPQVYVLAPHRDELSKNKVSVTCLVKDFYPTDIDIEWKSNGQPEPETKYSTTPAQLDSDGSYFLYSKLTVETNRWQQGTTFTCAVMHEALHMHYTEKSVSKSPGK | pKd | 7.36
equine IgG1 D312Q (antibody, part only; not given: variable domains, not shown: another chain or arm of the molecule) constant: ASTTAPKVFALAPGCGTTSDSTVALGCLVSGYFPEPVKVSWNSGSLTSGVHTFPSVLQSSGFYSLSSMVTVPASTWTSETYICNVVHAASNFKVDKRIEPIPDNHQKVCDMSKCPKCPAPELLGGPSVFIFPPNPKDTLMITRTPEVTCVVVDVSQENPDVKFNWYMDGVEVRTATTRPKEEQFNSTYRVVSVLRIQHQQWLSGKEFKCKVNNQALPQPIERTITKTKGRSQEPQVYVLAPHPDELSKSKVSVTCLVKDFYPPEINIEWQSNGQPELETKYSTTQAQQDSDGSYFLYSKLSVDRNRWQQGTTFTCGVMHEALHNHYTQKNVSKNPGK | pKd | 7.34
equine IgG1 N434M (antibody, part only; not given: Variable domains, not shown: another chain or arm of the molecule) constant: ASTTAPKVFALAPGCGTTSDSTVALGCLVSGYFPEPVKVSWNSGSLTSGVHTFPSVLQSSGFYSLSSMVTVPASTWTSETYICNVVHAASNFKVDKRIEPIPDNHQKVCDMSKCPKCPAPELLGGPSVFIFPPNPKDTLMITRTPEVTCVVVDVSQENPDVKFNWYMDGVEVRTATTRPKEEQFNSTYRVVSVLRIQHQDWLSGKEFKCKVNNQALPQPIERTITKTKGRSQEPQVYVLAPHPDELSKSKVSVTCLVKDFYPPEINIEWQSNGQPELETKYSTTQAQQDSDGSYFLYSKLSVDRNRWQQGTTFTCGVMHEALHMHYTQKNVSKNPGK | pKd | 7.54
